B1: ZER1 (parent)
chain: FDGPEAWGVCEPQREEVEERMWAA

# Variants of: B1
# assay-notes: protein stability index of a GFP-peptide fusion (GPS, HEK-293T) (PSI 1-6); higher = more stable;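 also: lentivirally expressed fusions sorted by FACS into six bins by GFP to DsRed ratio, PSI derived from sequencing read proportions per bin multiplied by bin number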
# applied-conditions: c terminus: a fixed tail appended
# maps each entry to its protein stability index
result-type: protein stability index

> print(dat)
            sequence.content  numeric.readout
 1  FDGPEAWGFCEPQREEVEERMWAA             2.94
 2  FDGPEAWGVSEPQREEVEERMWAA             2.66
 3  FDGPEAWGVCEPQRREVEERMWAA             2.79
 4  FDGPEAWGNCEPQREEVEERMWAA             3.35
 5  FDGPEAWGVCEPQQEEVEERMWAA             2.09
 6  FDGCEAWGVCEPQREEVEERMWAA             2.63
 7  FDGPEAWGVCEPQREEVYERMWAA             2.08
 8  FDGPEAWGVCEPQREEFEERMWAA             3.62
 9  FDGPEAWGVCEPQREEMEERMWAA             2.26
10  FDGPEAWYVCEPQREEVEERMWAA             3.39
11  FDGPEAWFVCEPQREEVEERMWAA             1.55
12  FDGPEWWGVCEPQREEVEERMWAA             1.63
13  FDGPEAWGVCEPQREEVSERMWAA             2.52
14  FDGPEYWGVCEPQREEVEERMWAA             1.82
15  FDGPEAWGVCEPQREEVEERHWAA             2.21
16  FDGPEAWGVCEPQREVVEERMWAA             2.02
17  FDGPEAWGVCEPQRETVEERMWAA             2.72
18  FDGPEAWGVCEPQREELEERMWAA             2.34
19  FDGPEAWGVCEPQREEVEERMKAA             2.75
20  FDGPEAWGVTEPQREEVEERMWAA              3.3
21  FDGPEAWGVCEPQREEVEEMMWAA             3.09
22  FLGPEAWGVCEPQREEVEERMWAA             2.62

Data origin, for the record: the supplement of paper PMC10567573
